All values here come from patent US20230081986A1.

- Tested on: food-source rabbit eyes (cornea)

MOLECULE	Meta. (Metabolic)
CCCCCCCCOCCCCCCCC	Neg.
CC(O)CO (stereo not shown)	Neg.
CC(O)CC(C)O (stereo not shown)	Neg.
CC(=O)CC(=O)OC(C)C [Isopropyl acetoacetate]	Pos.

----------
Measured Direct (depth of injury, stromal) accompanies every entry in the list below.
- Tested on: food-source rabbit eyes (cornea)
- REPORTED CONDITIONS: rabbit, 1 min
A number alone suffices; assume %.

Sample answers from the record:
MOLECULE	RESULT NUMBER
CCCCCCCCOCCCCCCCC	0.0
CCOC(=O)C(C)(C)O [2-Hydroxy isobutyric acid ethyl ester]	42.3
COC(C)=O [Methyl acetate]	24.0
CCCC(C)CO (centres unmarked)	5.7

Now take the following molecule into account.
*Q* May I ask what Direct (depth of injury, stromal) has been recorded for CC(O)C(=O)O (centres unmarked) ?
*A* 100.0
